From: patent US20120197004A1

- Tested on: Bacillus subtillis (ATCC 43223)
- testConditions: ATCC 43223
Where a SMILES comes first, the peptide text is derived from it. [ ]: non-standard residue; d: D form. ξ: configuration not given here. Oic = O=C(O)[C@@H]1C[C@@H]2CCCC[C@@H]2N1; ξTic = O=C(O)C1Cc2ccccc2CN1; ξOic = O=C(O)C1CC2CCCCC2N1
readoutName: MIC Bacillus Subtillis (µM)
Hi! Could you send only the number? It should be in µM, unit omitted.

[
  {
    "molecule": "CC(=O)N[C@@H](Cc1ccccc1)C(=O)N1Cc2ccccc2CC1C(=O)N1C(C(=O)N[C@@H](CCCCN)C(=O)N2Cc3ccccc3CC2C(=O)N2C(C(=O)N[C@@H](Cc3ccccc3)C(=O)N3Cc4ccccc4CC3C(=O)N3C(C(=O)N[C@@H](CCCCN)C(=O)N4Cc5ccccc5CC4C(=O)N[C@@H](CCCCN)C(=O)N[C@@H](CCCCN)C(=O)N[C@@H](CCCCN)C(=O)N[C@@H](CCCCN)C(N)=O)CC4CCCCC43)CC3CCCCC32)CC2CCCCC21 (stereo partly drawn) [FKAB-1Gc] (Ac-F[ξTic][ξOic]K[ξTic][ξOic]F[ξTic][ξOic]K[ξTic]KKKK-NH2)",
    "readoutName": "MIC Bacillus Subtillis",
    "experimentalResult": 1.00
  },
  {
    "molecule": "CC(=O)NCC(=O)N[C@@H](Cc1ccccc1)C(=O)NCC(=O)N1C(C(=O)NCC(=O)N[C@@H](CCCCN)C(=O)NCC(=O)N2C(C(=O)NCC(=O)N[C@@H](Cc3ccccc3)C(=O)NCC(=O)N3C(C(=O)NCC(=O)N[C@@H](CCCCN)C(=O)NCC(=O)N[C@@H](CCCCN)C(=O)N[C@@H](CCCCN)C(=O)N[C@@H](CCCCN)C(=O)N[C@@H](CCCCN)C(N)=O)CC4CCCCC43)CC3CCCCC32)CC2CCCCC21 (stereo partly drawn) [FKAB-1Gf1] (Ac-GFG[ξOic]GKG[ξOic]GFG[ξOic]GKGKKKK-NH2)",
    "readoutName": "MIC Bacillus Subtillis",
    "experimentalResult": 30.00
  },
  {
    "molecule": "CC(=O)NCC(=O)N[C@@H](Cc1ccccc1)C(=O)N1[C@H](C(=O)NCC(=O)N[C@@H](CCCCN)C(=O)N2[C@H](C(=O)NCC(=O)N[C@@H](Cc3ccccc3)C(=O)N3[C@H](C(=O)NCC(=O)N[C@@H](CCCCN)C(=O)N[C@@H](CCCCN)C(=O)N[C@@H](CCCCN)C(=O)N[C@@H](CCCCN)C(=O)N[C@@H](CCCCN)C(N)=O)C[C@@H]4CCCC[C@@H]43)C[C@@H]3CCCC[C@@H]32)C[C@@H]2CCCC[C@@H]21 [FKAB-1Gf, Ac-GF-Oic-GK-Oic-GF-Oic-GKKKKK-CONH2] (Ac-GF[Oic]GK[Oic]GF[Oic]GKKKKK-NH2)",
    "readoutName": "MIC Bacillus Subtillis",
    "experimentalResult": 3.00
  },
  {
    "molecule": "CC(=O)NCC(=O)N1Cc2ccccc2CC1C(=O)N1C(C(=O)N[C@@H](CCCCN)C(=O)N2Cc3ccccc3CC2C(=O)N2C(C(=O)NCC(=O)N3Cc4ccccc4CC3C(=O)N3C(C(=O)N[C@@H](CCCCN)C(=O)N4Cc5ccccc5CC4C(=O)N[C@@H](CCCCN)C(=O)N[C@@H](CCCCN)C(=O)N[C@@H](CCCCN)C(=O)N[C@@H](CCCCN)C(N)=O)CC4CCCCC43)CC3CCCCC32)CC2CCCCC21 (stereo partly drawn) [FKAB-1Ge] (Ac-G[ξTic][ξOic]K[ξTic][ξOic]G[ξTic][ξOic]K[ξTic]KKKK-NH2)",
    "readoutName": "MIC Bacillus Subtillis",
    "experimentalResult": 1.00
  }
]

What value of MIC Bacillus Subtillis has been reported for the following molecule? CC(=O)NCC(=O)N[C@@H](Cc1ccccc1)C(=O)N1Cc2ccccc2CC1C(=O)NCC(=O)N[C@@H](CCCCN)C(=O)N1Cc2ccccc2CC1C(=O)NCC(=O)N[C@@H](Cc1ccccc1)C(=O)N1Cc2ccccc2CC1C(=O)NCC(=O)N[C@@H](CCCCN)C(=O)N1Cc2ccccc2CC1C(=O)N[C@@H](CCCCN)C(=O)N[C@@H](CCCCN)C(=O)N[C@@H](CCCCN)C(=O)N[C@@H](CCCCN)C(N)=O (stereo partly drawn) [FKAB-1Gg] (Ac-GF[ξTic]GK[ξTic]GF[ξTic]GK[ξTic]KKKK-NH2)
10.00

What value of MIC Bacillus Subtillis has been reported for the following molecule? CC(=O)NCC(=O)N[C@@H](Cc1ccccc1)C(=O)N1Cc2ccccc2CC1C(=O)NCC(=O)NCC(=O)N[C@@H](CCCCN)C(=O)N1Cc2ccccc2CC1C(=O)NCC(=O)NCC(=O)N[C@@H](Cc1ccccc1)C(=O)N1Cc2ccccc2CC1C(=O)NCC(=O)NCC(=O)N[C@@H](CCCCN)C(=O)N1Cc2ccccc2CC1C(=O)N[C@@H](CCCCN)C(=O)N[C@@H](CCCCN)C(=O)N[C@@H](CCCCN)C(=O)N[C@@H](CCCCN)C(N)=O (stereo partly drawn) [FKAB-1Gg1] (Ac-GF[ξTic]GGK[ξTic]GGF[ξTic]GGK[ξTic]KKKK-NH2)
10.00

* * *

- Test system: Salmonella typhimurium (ATCC 13311)
- testConditions: ATCC 13311
Where a SMILES comes first, the peptide text is derived from it. [ ]: non-standard residue; d: D form. ξ: configuration not given here. ξTic = O=C(O)C1Cc2ccccc2CN1; ξOic = O=C(O)C1CC2CCCCC2N1
readoutName: MIC Salmonella typhimurium (µM)
Hi! Could you send only the number? It should be in µM, unit omitted.

What value of MIC Salmonella typhimurium has been reported for the following compound? CC(=O)N[C@@H](Cc1ccccc1)C(=O)N1Cc2ccccc2CC1C(=O)N1C(C(=O)N[C@@H](CCCCN)C(=O)N2Cc3ccccc3CC2C(=O)N2C(C(=O)N[C@@H](Cc3ccccc3)C(=O)N3Cc4ccccc4CC3C(=O)N3C(C(=O)N[C@@H](CCCCN)C(=O)N4Cc5ccccc5CC4C(=O)N[C@@H](CCCCN)C(=O)N[C@@H](CCCCN)C(=O)N[C@@H](CCCCN)C(=O)N[C@@H](CCCCN)C(N)=O)CC4CCCCC43)CC3CCCCC32)CC2CCCCC21 (stereo partly shown) [FKAB-1Gc] (Ac-F[ξTic][ξOic]K[ξTic][ξOic]F[ξTic][ξOic]K[ξTic]KKKK-NH2)
10

* * *

- assayRemarks: in vitro
- testConditions: mouse, microsomes, pH 7.4
Where a SMILES comes first, the peptide text is derived from it. [ ]: non-standard residue; d: D form. ξ: configuration not given here. ξTic = O=C(O)C1Cc2ccccc2CN1; ξOic = O=C(O)C1CC2CCCCC2N1
readoutName: remaining at 0.5 h, 1 μM (%)
Hi! Could you send only the number? It should be in %, unit omitted.

Some solved cases for reference:
[
  {
    "compound": "CC(=O)CC(c1ccccc1)c1c(O)c2ccccc2oc1=O (stereo not drawn) [Warfarin, warfarin, reference compound]",
    "readoutName": "remaining at 0.5 h, 1 μM",
    "experimentalResult": 111
  },
  {
    "compound": "CC(C)NCC(O)COc1cccc2ccccc12 (stereo not drawn) [Propranolol, propranolol, reference compound]",
    "readoutName": "remaining at 0.5 h, 1 μM",
    "experimentalResult": 9
  }
]

What value of remaining at 0.5 h, 1 μM has been reported for the following compound? CC(=O)N[C@@H](Cc1ccccc1)C(=O)N1Cc2ccccc2CC1C(=O)N1C(C(=O)N[C@@H](CCCCN)C(=O)N2Cc3ccccc3CC2C(=O)N2C(C(=O)N[C@@H](Cc3ccccc3)C(=O)N3Cc4ccccc4CC3C(=O)N3C(C(=O)N[C@@H](CCCCN)C(=O)N4Cc5ccccc5CC4C(=O)N[C@@H](CCCCN)C(=O)N[C@@H](CCCCN)C(=O)N[C@@H](CCCCN)C(=O)N[C@@H](CCCCN)C(N)=O)CC4CCCCC43)CC3CCCCC32)CC2CCCCC21 (stereo partly drawn) [FKAB-1Gc] (Ac-F[ξTic][ξOic]K[ξTic][ξOic]F[ξTic][ξOic]K[ξTic]KKKK-NH2)
10

* * *

- assayRemarks: in vitro
- testConditions: monkey, microsomes, pH 7.4
Where a SMILES comes first, the peptide text is derived from it. [ ]: non-standard residue; d: D form. ξ: configuration not given here. ξTic = O=C(O)C1Cc2ccccc2CN1; ξOic = O=C(O)C1CC2CCCCC2N1
readoutName: remaining at 0.5 h, 1 μM (%)
Hi! Could you send only the number? It should be in %, unit omitted.

[
  {
    "molecule": "CC(=O)NCC(=O)N1Cc2ccccc2CC1C(=O)N1C(C(=O)N[C@@H](CCCCN)C(=O)N2Cc3ccccc3CC2C(=O)N2C(C(=O)NCC(=O)N3Cc4ccccc4CC3C(=O)N3C(C(=O)N[C@@H](CCCCN)C(=O)N4Cc5ccccc5CC4C(=O)N[C@@H](CCCCN)C(=O)N[C@@H](CCCCN)C(=O)N[C@@H](CCCCN)C(=O)N[C@@H](CCCCN)C(N)=O)CC4CCCCC43)CC3CCCCC32)CC2CCCCC21 (stereo partly shown) [FKAB-1Ge] (Ac-G[ξTic][ξOic]K[ξTic][ξOic]G[ξTic][ξOic]K[ξTic]KKKK-NH2)",
    "readoutName": "remaining at 0.5 h, 1 μM",
    "experimentalResult": 73
  }
]

What value of remaining at 0.5 h, 1 μM has been reported for the following molecule? CC(C)NCC(O)COc1cccc2ccccc12 (stereo not shown) [Propranolol, propranolol, reference compound]
9

What value of remaining at 0.5 h, 1 μM has been reported for the following molecule? CC(=O)N[C@@H](Cc1ccccc1)C(=O)N1Cc2ccccc2CC1C(=O)N1C(C(=O)N[C@@H](CCCCN)C(=O)N2Cc3ccccc3CC2C(=O)N2C(C(=O)N[C@@H](Cc3ccccc3)C(=O)N3Cc4ccccc4CC3C(=O)N3C(C(=O)N[C@@H](CCCCN)C(=O)N4Cc5ccccc5CC4C(=O)N[C@@H](CCCCN)C(=O)N[C@@H](CCCCN)C(=O)N[C@@H](CCCCN)C(=O)N[C@@H](CCCCN)C(N)=O)CC4CCCCC43)CC3CCCCC32)CC2CCCCC21 (stereo partly shown) [FKAB-1Gc] (Ac-F[ξTic][ξOic]K[ξTic][ξOic]F[ξTic][ξOic]K[ξTic]KKKK-NH2)
24

What value of remaining at 0.5 h, 1 μM has been reported for the following molecule? CC(=O)CC(c1ccccc1)c1c(O)c2ccccc2oc1=O (stereo not shown) [Warfarin, warfarin, reference compound]
109
